I'd be grateful if you could share measured inhibition at 20 µM for these entries.
molecular target: ENPP-1, MDA-MB-231 cells (Homo sapiens, UniProt P22413); experiment: cell-based; conditions: MDA-MB-231, read-out: % Inhibition (at 20 μM)
Sequence (P22413 whole entry): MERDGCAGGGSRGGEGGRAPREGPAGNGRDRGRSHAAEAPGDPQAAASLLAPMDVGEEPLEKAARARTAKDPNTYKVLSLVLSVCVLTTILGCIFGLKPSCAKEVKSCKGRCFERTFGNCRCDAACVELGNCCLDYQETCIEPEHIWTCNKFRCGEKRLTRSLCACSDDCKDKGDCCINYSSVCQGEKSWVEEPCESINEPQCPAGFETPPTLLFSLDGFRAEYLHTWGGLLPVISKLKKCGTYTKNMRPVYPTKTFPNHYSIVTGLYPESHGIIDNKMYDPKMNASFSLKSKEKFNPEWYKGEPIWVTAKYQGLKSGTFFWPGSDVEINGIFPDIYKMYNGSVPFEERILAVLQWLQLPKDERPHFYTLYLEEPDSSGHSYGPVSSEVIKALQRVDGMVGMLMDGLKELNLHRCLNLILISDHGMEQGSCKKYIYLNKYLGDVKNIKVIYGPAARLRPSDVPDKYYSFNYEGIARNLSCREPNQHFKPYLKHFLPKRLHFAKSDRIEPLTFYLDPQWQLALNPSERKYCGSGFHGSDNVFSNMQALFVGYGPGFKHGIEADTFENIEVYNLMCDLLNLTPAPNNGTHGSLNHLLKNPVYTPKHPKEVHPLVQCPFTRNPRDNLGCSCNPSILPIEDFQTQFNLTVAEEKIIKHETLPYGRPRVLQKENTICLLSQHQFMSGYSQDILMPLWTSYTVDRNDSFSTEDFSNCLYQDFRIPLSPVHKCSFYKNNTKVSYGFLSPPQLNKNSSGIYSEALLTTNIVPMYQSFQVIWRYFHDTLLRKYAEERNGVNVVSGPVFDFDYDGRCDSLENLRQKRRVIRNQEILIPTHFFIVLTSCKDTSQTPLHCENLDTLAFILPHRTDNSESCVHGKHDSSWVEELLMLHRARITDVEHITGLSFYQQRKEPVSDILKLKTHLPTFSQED
Answers are plain numbers, in %.

Completed entries (count: 3):
| structure_notation | target_desc | inhibition at 20 µM (%) |
| --- | --- | --- |
| COc1cnc2c(c1)ncc1ncn(Cc3ccc(S(N)(=O)=O)cc3)c12 | ENPP-1, MDA-MB-231 cells (Homo sapiens, UniProt P22413) | 67 |
| COc1ccc2c(n1)nc(C)c1nc(CO)n(Cc3cc(F)c(S(N)(=O)=O)cc3F)c12 | ENPP-1, MDA-MB-231 cells (Homo sapiens, UniProt P22413) | 74 |
| COc1ccc2c(ncc3nc(C(F)(F)F)n(Cc4ccc(S(N)(=O)=O)cc4)c32)n1 | ENPP-1, MDA-MB-231 cells (Homo sapiens, UniProt P22413) | 72 |

Hey, quick one: what's inhibition at 20 µM for each of these?
1. COc1ccc2c(c1)nnc1[nH]c(=O)n(Cc3ccc(S(N)(=O)=O)cc3F)c12
2. COc1ccc2c(n1)nc(C)c1ncn(Cc3ccc(S(N)(=O)=O)cn3)c12
3. COc1ccc2c(ncc3nc(C)n(Cc4ccc(S(N)(=O)=O)nc4)c32)n1
4. COc1ccc2c(ncc3c2n(Cc2c(F)cc(S(N)(=O)=O)cc2F)c(=O)n3CC(F)(F)F)n1
5. COc1ccc2c(ncc3[nH]c(=O)n(Cc4ccc(S(N)(=O)=O)c(F)c4F)c32)n1

Output:
66
85
81
88
75
